- System: Saccharomyces cerevisiae
- experiment: protein stability index of tFT-peptide fusion (C-terminal peptide) (PSI (0-1 scale)); higher = more stable (slower turnover)
- conditions: genetic background: wild type; temperature: 30 C
Kindly supply the reported protein stability index values for the records listed here.
Note: the reply should be a number with no unit written.

Prompt: State the recorded protein stability index for this entry: `VAVWGAIRHASN`
Completion: 0.718

Prompt: State the recorded protein stability index for this entry: `AGGGWAVQVGMG`
Completion: 0.684

Prompt: State the recorded protein stability index for this entry: `SWVDVGSWLGGV`
Completion: 0.711

Prompt: State the recorded protein stability index for this entry: `RLVDCDLTDKWH`
Completion: 0.696

Prompt: State the recorded protein stability index for this entry: `RSARGRRGWALG`
Completion: 0.712

Prompt: State the recorded protein stability index for this entry: `TSGRTLVNDKCT`
Completion: 0.716

Prompt: State the recorded protein stability index for this entry: `PPPPPPSLPPPS`
Completion: 0.714

Prompt: State the recorded protein stability index for this entry: `LLPPPLPQAPPT`
Completion: 0.708

Prompt: State the recorded protein stability index for this entry: `RPVVASRQASHS`
Completion: 0.703

Prompt: State the recorded protein stability index for this entry: `DGVRGDVVTGYL`
Completion: 0.713

Prompt: State the recorded protein stability index for this entry: `RLPPPPPPSPHL`
Completion: 0.711

Prompt: State the recorded protein stability index for this entry: `CRAPSPRPWRPH`
Completion: 0.708

Prompt: State the recorded protein stability index for this entry: `GASSPVEVGAAG`
Completion: 0.695

Prompt: State the recorded protein stability index for this entry: `AFYFGQFEFWRC`
Completion: 0.698

Prompt: State the recorded protein stability index for this entry: `PLRTLFGDHLLV`
Completion: 0.683

----------
Kindly supply the reported protein stability index values for the records listed here.
- System: Saccharomyces cerevisiae
- experiment: protein stability index of tFT-peptide fusion (C-terminal peptide) (PSI (0-1 scale)); higher = more stable (slower turnover)
- conditions: genetic background: das1 deletion; temperature: 37 C
Note: the reply should be a number with no unit written.

Prompt: State the recorded protein stability index for this entry: `RWCLELLWITSC`
Completion: 0.501

Prompt: State the recorded protein stability index for this entry: `KYCPCIPLLIAL`
Completion: 0.5

Prompt: State the recorded protein stability index for this entry: `TCVVCSCVLQCV`
Completion: 0.49

Prompt: State the recorded protein stability index for this entry: `FFVEFFLLCFCS`
Completion: 0.503

----------
- System: Saccharomyces cerevisiae
- experiment: protein stability index of tFT-peptide fusion (C-terminal peptide) (PSI (0-1 scale)); higher = more stable (slower turnover)
- conditions: genetic background: wild type; temperature: 30 C
Kindly supply the reported protein stability index values for the records listed here.
Note: the reply should be a number with no unit written.

Prompt: State the recorded protein stability index for this entry: `PHPPPSPGPSPP`
Completion: 0.707

Prompt: State the recorded protein stability index for this entry: `SRGLVVYMDALR`
Completion: 0.692

Prompt: State the recorded protein stability index for this entry: `SRVVCVGGRLFG`
Completion: 0.702

Prompt: State the recorded protein stability index for this entry: `IKGKYYEAKNKI`
Completion: 0.714

Prompt: State the recorded protein stability index for this entry: `FCSCLCGGEFVR`
Completion: 0.69

Prompt: State the recorded protein stability index for this entry: `PPPSSPPPLPLP`
Completion: 0.681

Prompt: State the recorded protein stability index for this entry: `TGLYWGQIPYSQ`
Completion: 0.687

Prompt: State the recorded protein stability index for this entry: `HLSNPRPPPPTR`
Completion: 0.703

Prompt: State the recorded protein stability index for this entry: `SSPRPPPPRFSP`
Completion: 0.687

Prompt: State the recorded protein stability index for this entry: `SSPPFPPSPPLP`
Completion: 0.695

Prompt: State the recorded protein stability index for this entry: `PPPPPYPPCIPL`
Completion: 0.695

Prompt: State the recorded protein stability index for this entry: `SFVGGKLRTEYS`
Completion: 0.71

Prompt: State the recorded protein stability index for this entry: `PSPLPMYPPPTF`
Completion: 0.693

Prompt: State the recorded protein stability index for this entry: `CPDFSSSLTFFL`
Completion: 0.706

Prompt: State the recorded protein stability index for this entry: `QPLDCPPYHPHH`
Completion: 0.687

Prompt: State the recorded protein stability index for this entry: `GSDPPAPLRHPR`
Completion: 0.709

Prompt: State the recorded protein stability index for this entry: `AAWSGGGAGCWT`
Completion: 0.708

Prompt: State the recorded protein stability index for this entry: `SCRLALPPSFLS`
Completion: 0.706

Prompt: State the recorded protein stability index for this entry: `WITAYFPLHSSE`
Completion: 0.714

Prompt: State the recorded protein stability index for this entry: `GIYAWFSGWRKD`
Completion: 0.72

Prompt: State the recorded protein stability index for this entry: `APPFPSLSSFAP`
Completion: 0.717

Prompt: State the recorded protein stability index for this entry: `LSPLLSLPRCPT`
Completion: 0.7

Prompt: State the recorded protein stability index for this entry: `VGVGWWVGLWGL`
Completion: 0.693

Prompt: State the recorded protein stability index for this entry: `VEGFVPEDGKEE`
Completion: 0.684

Prompt: State the recorded protein stability index for this entry: `GSPPSSLTADSA`
Completion: 0.683

----------
- Tested on: Saccharomyces cerevisiae
- experiment: protein stability index of tFT-peptide fusion in wild type (PSI (0-1 scale)); higher = more stable (slower turnover)
- conditions: genetic background: wild type
measured-endpoint: protein stability index
Note: the reply should be a number with no unit written.

Prompt: State the recorded protein stability index for this entry: `ARWRVGLWRGASW`
Completion: 0.67

Prompt: State the recorded protein stability index for this entry: `RSLRVLGPLYFR`
Completion: 0.344

Prompt: State the recorded protein stability index for this entry: `QVVYLSCVACIN`
Completion: 0.0122

Prompt: State the recorded protein stability index for this entry: `PSLAASFWGVVG`
Completion: 0.697

Prompt: State the recorded protein stability index for this entry: `CLVSPPILLFFR`
Completion: 0.0809

Prompt: State the recorded protein stability index for this entry: `CYSCGYKFRTNN`
Completion: 0.168

Prompt: State the recorded protein stability index for this entry: `GLYMCSVGCWPR`
Completion: 0.64

Prompt: State the recorded protein stability index for this entry: `LVVYLSCVACMN`
Completion: 0.0204

Prompt: State the recorded protein stability index for this entry: `FSMEWTFRYWVN`
Completion: 0.112

Prompt: State the recorded protein stability index for this entry: `KKHKKGQKQKNN`
Completion: 0.476

Prompt: State the recorded protein stability index for this entry: `GLYVCSVGCWFR`
Completion: 0.2

Prompt: State the recorded protein stability index for this entry: `GLYMCSVGCWAR`
Completion: 0.438

Prompt: State the recorded protein stability index for this entry: `LKILRMKMNHQN`
Completion: 0.243

Prompt: State the recorded protein stability index for this entry: `GLYMCSVGCLFR`
Completion: 0.575

Prompt: State the recorded protein stability index for this entry: `RLIQPLPVQFLD`
Completion: 0.633

Prompt: State the recorded protein stability index for this entry: `CTSCGYKFRTNNG`
Completion: 0.683

Prompt: State the recorded protein stability index for this entry: `RVTRLCAIYFRI`
Completion: 0.178

Prompt: State the recorded protein stability index for this entry: `CTSCGYKFRTKN`
Completion: 0.631

Prompt: State the recorded protein stability index for this entry: `PSLAASFWRVVGK`
Completion: 0.666

Prompt: State the recorded protein stability index for this entry: `RVTNLDAIYFRI`
Completion: 0.55

Prompt: State the recorded protein stability index for this entry: `RVTMLDAIYFRI`
Completion: 0.52

Prompt: State the recorded protein stability index for this entry: `CTSCGYKLRTNN`
Completion: 0.471

Prompt: State the recorded protein stability index for this entry: `LKILRQKFNHQN`
Completion: 0.202

Prompt: State the recorded protein stability index for this entry: `LKIQRQKMNHQN`
Completion: 0.23

Prompt: State the recorded protein stability index for this entry: `RSLRVGLPLYFR`
Completion: 0.287

Prompt: State the recorded protein stability index for this entry: `ARGAVGGWRLVG`
Completion: 0.172

Prompt: State the recorded protein stability index for this entry: `LVVYLSCVECIN`
Completion: 0.125

Prompt: State the recorded protein stability index for this entry: `FSMRWTFHYWVN`
Completion: 0.048

Prompt: State the recorded protein stability index for this entry: `VRGAVRGWRLVG`
Completion: 0.146

Prompt: State the recorded protein stability index for this entry: `VRGAVGGHRLVG`
Completion: 0.675

Prompt: State the recorded protein stability index for this entry: `RVTRLDAIEFRI`
Completion: 0.704

Prompt: State the recorded protein stability index for this entry: `PSLAASFWREVG`
Completion: 0.258

Prompt: State the recorded protein stability index for this entry: `GLYMTSVGCWFR`
Completion: 0.275

Prompt: State the recorded protein stability index for this entry: `RLIQPLPVQALN`
Completion: 0.36

Prompt: State the recorded protein stability index for this entry: `KKHKAGQKQKIN`
Completion: 0.0948

Prompt: State the recorded protein stability index for this entry: `GLYMCSVGWWFR`
Completion: 0.499

Prompt: State the recorded protein stability index for this entry: `FRMRWTFRYWVN`
Completion: 0.0353

Prompt: State the recorded protein stability index for this entry: `AITLPMIPLLLR`
Completion: 0.115

Prompt: State the recorded protein stability index for this entry: `DKHKKGQKQKIN`
Completion: 0.113

Prompt: State the recorded protein stability index for this entry: `GLYMQSVGCWFR`
Completion: 0.287

Prompt: State the recorded protein stability index for this entry: `RSLDVLLPLYFR`
Completion: 0.244

Prompt: State the recorded protein stability index for this entry: `ARWRVGLWRFAS`
Completion: 0.101

Prompt: State the recorded protein stability index for this entry: `RVTRLDAIYIRI`
Completion: 0.325

Prompt: State the recorded protein stability index for this entry: `CTSCGYKFRTIN`
Completion: 0.148

Prompt: State the recorded protein stability index for this entry: `LVAYLSCVACIN`
Completion: 0.0244

Prompt: State the recorded protein stability index for this entry: `PSLRASFWRVVG`
Completion: 0.141

Prompt: State the recorded protein stability index for this entry: `CTSCGYKFRFNN`
Completion: 0.303

Prompt: State the recorded protein stability index for this entry: `LVGYLSCVACIN`
Completion: 0.0848

Prompt: State the recorded protein stability index for this entry: `ARWRVGLWTGAS`
Completion: 0.664

Prompt: State the recorded protein stability index for this entry: `RVTRLDAIYFFI`
Completion: 0.471

Prompt: State the recorded protein stability index for this entry: `RVTSLDAIYFRI`
Completion: 0.55

Prompt: State the recorded protein stability index for this entry: `GHYMCSVGCWFR`
Completion: 0.365

Prompt: State the recorded protein stability index for this entry: `CLVSLPILLFRR`
Completion: 0.43

Prompt: State the recorded protein stability index for this entry: `GLYMCSVGCWQR`
Completion: 0.629

Prompt: State the recorded protein stability index for this entry: `CTSCGYKFNTNN`
Completion: 0.42

Prompt: State the recorded protein stability index for this entry: `PDKRNHLIALLN`
Completion: 0.216

Prompt: State the recorded protein stability index for this entry: `PDKRSHLIKLLN`
Completion: 0.0872

Prompt: State the recorded protein stability index for this entry: `KKHKKGQKQSIN`
Completion: 0.673

Prompt: State the recorded protein stability index for this entry: `CTSCGYKQRTNN`
Completion: 0.538

Prompt: State the recorded protein stability index for this entry: `LKILRQKMNHQG`
Completion: 0.215

Prompt: State the recorded protein stability index for this entry: `PDKRNHWIKLLN`
Completion: 0.196

Prompt: State the recorded protein stability index for this entry: `RLIQPLPVQFLQ`
Completion: 0.447

Prompt: State the recorded protein stability index for this entry: `CLVSLPILLFAR`
Completion: 0.161

Prompt: State the recorded protein stability index for this entry: `PDKRNHLQKLLN`
Completion: 0.168

Prompt: State the recorded protein stability index for this entry: `AITRPMCPLLLR`
Completion: 0.393

Prompt: State the recorded protein stability index for this entry: `LVVYLSCVFCIN`
Completion: 0.0477

Prompt: State the recorded protein stability index for this entry: `PDKRNHLIKLPN`
Completion: 0.592

Prompt: State the recorded protein stability index for this entry: `AITLPMCPLPLR`
Completion: 0.648

Prompt: State the recorded protein stability index for this entry: `PDKRNHLIKLVN`
Completion: 0.158

Reference source: the supplement of paper PMC10724198
